Target: T1, soluble EGFR (sEGFR) (Homo sapiens (assumed; EGFR on human …, UniProt P00533)
T1 construct: soluble epidermal growth factor receptor (sEGFR); also called epidermal growth factor receptor; immobilized EGFR; source: prepared as described previously [28]
Assay: SPR; Biacore 2000; sEGFR immobilised on a CM5 chip (amount not given for Tables 2 and 5); running buffer PBS with 0.005% Tween20; scFv monomer or dimer injected for 120 s at 10 to 250 nM; global fit, 1:1 Langmuir model
Details: both partners purified
EXPERIMENTAL_ENDPOINT: koff

[[record]]
binder = "LK103-0K h528 scFv (scFv, V domains shown, linker (GGGGS)3; lysine kept at L103; also called LK103-0K scFv) VH: QVQLVQSGAEVAEPGASVQVSCAASGYTFTSYWMHWVRQAPGQGLEWMGNIYPGSGGTNYAEEFQNRVTMTRDTSISTAYMELSRLRSDDTAVYYCARSGGPYFFDYWGQGTLVTVSS VL: DIVMTQSPLSLPVTPGEPASISCRSSQNIVHNNGITYLEWYLQRPGQSPQLLIYQVSDRFSGVPDRFSGSGSGTDFTLTISRVEAEDVGVYYCFQGSHIPPTFGQGTKVEIE"
val = "0.0086 s⁻¹"


Just for reference, paper PMC7037651 is where these values come from.
